These entries and their values trace back to PubChem BioAssay AID1963958.

Recorded viability, T/C values for a group of compounds are listed next.
System: MDA-MB-231 multicell spheroids, viability
experimentalProtocol: Anticancer human tumor MDA-MB-231 cell line growth inhibition [PI3K]
testSettings: second compound 1 µM; first compound 0.1 µM; stronger effect = lower value
endpointName: viability, T/C (%)

- compound: "Cn1ncnc1[C@H]1c2n[nH]c(=O)c3cc(F)cc(c23)N[C@@H]1c1ccc(F)cc1 + CC(Nc1ncnc2nc[nH]c12)c1cc2cccc(Cl)c2c(=O)n1-c1ccccc1"
  endpointName: "viability, T/C"
  quantityUnit: "%"
  reportedResult: 65
- compound: "CCN1CCN(Cc2ccc(Nc3ncc(F)c(-c4cc(F)c5nc(C)n(C(C)C)c5c4)n3)nc2)CC1 + Cc1nc(NC(=O)N2CCCC2C(N)=O)sc1-c1ccnc(C(C)(C)C(F)(F)F)c1"
  endpointName: "viability, T/C"
  quantityUnit: "%"
  reportedResult: 40.2
- compound: "CC1(C)CCC(Nc2ncc(C(F)(F)F)c(-c3c[nH]c4c(P(C)(C)=O)c(C#N)ccc34)n2)CN1 (stereo unspecified) + CC(Nc1ncnc2nc[nH]c12)c1cc2cccc(Cl)c2c(=O)n1-c1ccccc1"
  endpointName: "viability, T/C"
  quantityUnit: "%"
  reportedResult: 34.7
- compound: "CC(=O)c1c(C)c2cnc(Nc3ccc(N4CCNCC4)cn3)nc2n(C2CCCC2)c1=O + CC(Nc1ncnc2nc[nH]c12)c1cc2cccc(Cl)c2c(=O)n1-c1ccccc1"
  endpointName: "viability, T/C"
  quantityUnit: "%"
  reportedResult: 36
- compound: "CC(C)NCC(C(=O)N1CCN(c2ncnc3c2C(C)CC3O)CC1)c1ccc(Cl)cc1 (stereo unspecified) + CC(Nc1ncnc2nc[nH]c12)c1cc2cccc(Cl)c2c(=O)n1-c1ccccc1"
  endpointName: "viability, T/C"
  quantityUnit: "%"
  reportedResult: 82.3
- compound: "Cn1ncnc1[C@H]1c2n[nH]c(=O)c3cc(F)cc(c23)N[C@@H]1c1ccc(F)cc1 + CC(Nc1ccc2c(c1)OCCn1cc(N3C(=O)OCC3C(F)F)nc1-2)C(N)=O"
  endpointName: "viability, T/C"
  quantityUnit: "%"
  reportedResult: 45.4
- compound: "Cn1ncc(Cl)c1-c1cc(C(=O)NC(CN)Cc2cccc(F)c2)sc1Cl (stereo unspecified) + CC(Nc1ccc2c(c1)OCCn1cc(N3C(=O)OCC3C(F)F)nc1-2)C(N)=O"
  endpointName: "viability, T/C"
  quantityUnit: "%"
  reportedResult: 56.9
- compound: "CCCS(=O)(=O)Nc1ccc(F)c(C(=O)c2c[nH]c3ncc(-c4ccc(Cl)cc4)cc23)c1F + Cc1nc(NC(=O)N2CCCC2C(N)=O)sc1-c1ccnc(C(C)(C)C(F)(F)F)c1"
  endpointName: "viability, T/C"
  quantityUnit: "%"
  reportedResult: 66.6
- compound: "CC(C)n1nc(-c2ccc3oc(N)nc3c2)c2c(N)ncnc21 + COc1c(OCCCN2CCOCC2)ccc2c3n(c(=NC(=O)c4cnc(N)nc4)nc12)CCN3"
  endpointName: "viability, T/C"
  quantityUnit: "%"
  reportedResult: 22.5
- compound: "CC(Cn1ccc(-c2ccc(C#N)c(Cl)c2)n1)NC(=O)c1cc(C(C)O)[nH]n1 (stereo unspecified) + CC(Nc1ncnc2nc[nH]c12)c1cc2cccc(Cl)c2c(=O)n1-c1ccccc1"
  endpointName: "viability, T/C"
  quantityUnit: "%"
  reportedResult: 79.4
- compound: "CC1(C)CCC(CN2CCN(c3ccc(C(=O)NS(=O)(=O)c4ccc(NCC5CCOCC5)c([N+](=O)[O-])c4)c(Oc4cnc5[nH]ccc5c4)c3)CC2)=C(c2ccc(Cl)cc2)C1 + Cc1nc(NC(=O)N2CCCC2C(N)=O)sc1-c1ccnc(C(C)(C)C(F)(F)F)c1"
  endpointName: "viability, T/C"
  quantityUnit: "%"
  reportedResult: 73.4

* * *

System: MDA-MB-231 multicell spheroids, viability
experimentalProtocol: Anticancer human tumor MDA-MB-231 cell line growth inhibition [PI3K];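 further: spheroids exposed to agents for seven days before reading; percent of vehicle control luminescence with DMSO treated spheroids as 100%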
testSettings: second compound 0.1 µM; first compound 0.00316 µM; stronger effect = lower value
Threshold 80%. viability, T/C below it: YES. viability, T/C at it or above: NO.

- compound: "CC(=O)c1c(C)c2cnc(Nc3ccc(N4CCNCC4)cn3)nc2n(C2CCCC2)c1=O + CC(Nc1ccc2c(c1)OCCn1cc(N3C(=O)OCC3C(F)F)nc1-2)C(N)=O"
  categoryLabel: "YES"
- compound: "CCN1CCN(Cc2ccc(Nc3ncc(F)c(-c4cc(F)c5nc(C)n(C(C)C)c5c4)n3)nc2)CC1 + CC(Nc1ccc2c(c1)OCCn1cc(N3C(=O)OCC3C(F)F)nc1-2)C(N)=O"
  categoryLabel: "YES"
- compound: "Cn1ncnc1[C@H]1c2n[nH]c(=O)c3cc(F)cc(c23)N[C@@H]1c1ccc(F)cc1 + CC(Nc1ncnc2nc[nH]c12)c1cc2cccc(Cl)c2c(=O)n1-c1ccccc1"
  categoryLabel: "NO"
- compound: "CC(=O)c1c(C)c2cnc(Nc3ccc(N4CCNCC4)cn3)nc2n(C2CCCC2)c1=O + CC(Nc1ncnc2nc[nH]c12)c1cc2cccc(Cl)c2c(=O)n1-c1ccccc1"
  categoryLabel: "NO"
- compound: "CCN1CCN(Cc2ccc(Nc3ncc(F)c(-c4cc(F)c5nc(C)n(C(C)C)c5c4)n3)nc2)CC1 + Cc1nc(NC(=O)N2CCCC2C(N)=O)sc1-c1ccnc(C(C)(C)C(F)(F)F)c1"
  categoryLabel: "NO"

* * *

Test system: MDA-MB-231 multicell spheroids, viability
experimentalProtocol: Anticancer human tumor MDA-MB-231 cell line growth inhibition [PI3K];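 further: spheroids exposed to agents for seven days before reading; percent of vehicle control luminescence with DMSO treated spheroids as 100%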
testSettings: second compound 1 µM; first compound 10 µM; stronger effect = lower value

- compound: "C=CC(=O)N1CCN(c2nc(=O)n(-c3c(C)ccnc3C(C)C)c3nc(-c4c(O)cccc4F)c(F)cc23)C(C)C1 (configuration not stated) + COc1c(OCCCN2CCOCC2)ccc2c3n(c(=NC(=O)c4cnc(N)nc4)nc12)CCN3"
  quantityUnit: "%"
  viability, T/C: 25.7
- compound: "CC1(C)CCC(CN2CCN(c3ccc(C(=O)NS(=O)(=O)c4ccc(NCC5CCOCC5)c([N+](=O)[O-])c4)c(Oc4cnc5[nH]ccc5c4)c3)CC2)=C(c2ccc(Cl)cc2)C1 + CC(Nc1ccc2c(c1)OCCn1cc(N3C(=O)OCC3C(F)F)nc1-2)C(N)=O"
  quantityUnit: "%"
  viability, T/C: 18.3

* * *

System: MDA-MB-231 multicell spheroids, viability
experimentalProtocol: Anticancer human tumor MDA-MB-231 cell line growth inhibition [PI3K];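 further: spheroids exposed to agents for seven days before reading; percent of vehicle control luminescence with DMSO treated spheroids as 100%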
testSettings: second compound 1 µM; first compound 10 µM; stronger effect = lower value

- compound: "Cn1ncc(Cl)c1-c1cc(C(=O)NC(CN)Cc2cccc(F)c2)sc1Cl (stereo not given) + CC(Nc1ccc2c(c1)OCCn1cc(N3C(=O)OCC3C(F)F)nc1-2)C(N)=O"
  quantityUnit: "%"
  viability, T/C: 18.9
- compound: "C[C@@H](NC(=O)c1ncnc(N)c1Cl)c1ncc(C(=O)Nc2cc(C(F)(F)F)c(Cl)cn2)s1 + CC(Nc1ccc2c(c1)OCCn1cc(N3C(=O)OCC3C(F)F)nc1-2)C(N)=O"
  quantityUnit: "%"
  viability, T/C: 28.8
- compound: "CC1(C)CCC(CN2CCN(c3ccc(C(=O)NS(=O)(=O)c4ccc(NCC5CCOCC5)c([N+](=O)[O-])c4)c(Oc4cnc5[nH]ccc5c4)c3)CC2)=C(c2ccc(Cl)cc2)C1 + Cc1nc(NC(=O)N2CCCC2C(N)=O)sc1-c1ccnc(C(C)(C)C(F)(F)F)c1"
  quantityUnit: "%"
  viability, T/C: 13.1
- compound: "Cn1nccc1Nc1nccc(-c2ccn(C(CO)c3ccc(Cl)c(F)c3)c(=O)c2)n1 (stereo not given) + CC(Nc1ccc2c(c1)OCCn1cc(N3C(=O)OCC3C(F)F)nc1-2)C(N)=O"
  quantityUnit: "%"
  viability, T/C: 16.2
- compound: "CC(C)NCC(C(=O)N1CCN(c2ncnc3c2C(C)CC3O)CC1)c1ccc(Cl)cc1 (stereo not given) + CC(Nc1ncnc2nc[nH]c12)c1cc2cccc(Cl)c2c(=O)n1-c1ccccc1"
  quantityUnit: "%"
  viability, T/C: 44.3

* * *

Tested on: MDA-MB-231 multicell spheroids, viability
experimentalProtocol: Anticancer human tumor MDA-MB-231 cell line growth inhibition [PI3K];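 further: spheroids exposed to agents for seven days before reading; percent of vehicle control luminescence with DMSO treated spheroids as 100%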
testSettings: compound 0.1 µM; stronger effect = lower value

- compound: "CC(Nc1ccc2c(c1)OCCn1cc(N3C(=O)OCC3C(F)F)nc1-2)C(N)=O (stereo not given)"
  viability, T/C: "72.1% [middle of 8 runs]"
- compound: "Cn1ncnc1[C@H]1c2n[nH]c(=O)c3cc(F)cc(c23)N[C@@H]1c1ccc(F)cc1"
  viability, T/C: "88.7% [middle of 4 runs]"
- compound: "CC(C)NCC(C(=O)N1CCN(c2ncnc3c2C(C)CC3O)CC1)c1ccc(Cl)cc1 (stereo not given)"
  viability, T/C: "102% [middle of 4 runs]"
- compound: "C#Cc1c(F)ccc2cc(O)cc(-c3ncc4c(N5CC6CCC(C5)N6)nc(OCC56CCCN5CC(F)C6)nc4c3F)c12 (stereo not given)"
  viability, T/C: "104% [middle of 4 runs]"
- compound: "CC(C)n1nc(-c2ccc3oc(N)nc3c2)c2c(N)ncnc21"
  viability, T/C: "38.8% [middle of 4 runs]"
